system: A498 renal; assay: NCI tumour cell line growth inhibition, 48 h
observable: TGI (µM)
Value expressed in µM; do not type the unit.

For orientation, consider the following solved cases.
smilesRepresentation	TGI, µM
Cc1c(C(=O)/C=C/c2c(Cl)cccc2Cl)c(=O)n(-c2ccccc2)n1C	98.4
CCOC(=O)NC(=O)c1cn(CCCOC(=O)NCCCCCCNC(=O)OCCCn2cc(C(=O)NC(=O)OCC)c(=O)[nH]c2=O)c(=O)[nH]c1=O	44.1
O=c1c2cc(-c3ccccc3)cnc2sn1-c1ccc(Oc2ccccc2)cc1	78.6

Consider the additional molecule presented here.
Request the reported TGI associated with "CC1=CC(=O)c2c(C=O)c(O)c(O)c(C(C)C)c2C1=O"
78
